Test system: M14 melanoma
Experiment: NCI-60 one-dose screen, 48 h
Details: 10 µM unless noted
Description: Growth inhibition of the M14 human tumor cell line is measured as a screen for anti-cancer activity. Cells are grown in 96 well plates and exposed to the test compound for 48 hours. Compounds are tested at a single concentration, which is 10^-5 M for most compounds. The reported endpoint is percent growth (GI% or GIPRCNT), where numbers from 0 - 100% represent growth inhibition, and numbers from -100% - 0 represent cell death. For example, a value of 40 represents 60% growth inhibition. […]
Compounds without any hit were thinned out: in the full panel of roughly 83,000, 20% have a hit. The source made the active and inactive calls. Rule for the calls: active = growth percent below 10; inactive = the rest.
The categories you may choose from are YES = active, NO = inactive

These recorded examples may help you get a feel for the data.
O=C(CC1(O)C(=O)N(Cc2ccccc2)c2ccc(Cl)cc21)c1ccc(C(=O)NCC2CCC3(CC2)OOC2(CCCCC2)OO3)cc1 (centres undefined)    NO
CCCCCCCCCCCCCCCCCC1OC[C@H](COC(=O)O[C@@H](C(=O)O[C@H]2C[C@@]3(O)[C@@H](OC(=O)c4ccccc4)[C@@H]4[C@]5(OC(C)=O)CO[C@@H]5C[C@H](O)[C@@]4(C)C(=O)[C@H](OC(C)=O)C(=C2C)C3(C)C)[C@@H](NC(=O)c2ccccc2)c2ccccc2)O1 (some centres undefined)    NO
CC(=O)/C=C/c1ccc2c(c1)OCO2    NO

Now for another entry.
Query: Each molecule tested received a call. Report the one for Clc1ccc(CO/N=C(\Cn2ccnc2)c2ccc(Cl)cc2Cl)c(Cl)c1 .
Response: YES
